Hey, just so you know, these numbers are from ChEMBL document CHEMBL5260848.

# Tested on: Aspergillus fumigatus
# assay-comment: Antifungal activity against Aspergillus fumigatus incubated for 24 hrs by disc diffusion method
# Format: functional
Entries and their MIC values follow.
A bare number is not enough; add the unit after it.

OC(Cn1cncn1)(Cn1cncn1)c1ccc(F)cc1F [FLUCONAZOLE]
30 µg/mL
COc1ccc(C2CC(c3ccccc3)=NN2C(=O)NNS(=O)(=O)c2ccc(F)cc2)cc1 (stereo unspecified)
25 µg/mL
Cc1ccc(C2CC(c3ccccc3)=NN2C(=O)NNS(=O)(=O)c2ccc(F)cc2F)cc1 (stereo unspecified)
25 µg/mL

Q: Returns the measured MIC for the input compound. Input: O=C(NNS(=O)(=O)c1ccc(F)cc1)N1N=C(c2ccccc2)CC1c1ccc(Cl)cc1 (stereo unspecified)
A: 25 µg/mL

Q: Returns the measured MIC for the input compound. Input: COc1ccc(C2CC(c3ccccc3)=NN2C(=O)NNS(=O)(=O)c2ccc(F)cc2F)cc1 (stereo unspecified)
A: 25 µg/mL

Q: Returns the measured MIC for the input compound. Input: Cc1ccc(C2CC(c3ccccc3)=NN2C(=O)NNS(=O)(=O)c2ccc(F)cc2)cc1 (stereo unspecified)
A: 25 µg/mL

* * *

pKi values recorded for Carbonic anhydrase 9 (Homo sapiens, UniProt Q16790)
Lab note — pKi values are minus log10 of concentrations in M.

A selection of reference data follows.
COc1ccc(C2=NN(C(C)=O)C(c3ccc(OS(N)(=O)=O)cc3)C2)cc1 (configuration not stated)
7.83
CC(=O)N1N=C(c2ccc(OS(N)(=O)=O)cc2)CC1c1ccccc1Cl (configuration not stated)
7.83
CC(=O)N1N=C(c2ccc(OS(N)(=O)=O)cc2)CC1c1ccc(C(F)(F)F)cc1 (configuration not stated)
7.83
CC(=O)N1N=C(c2ccc(OS(N)(=O)=O)cc2)CC1c1cc(Cl)ccc1Cl (configuration not stated)
7.83
CC(=O)N1N=C(c2ccc(OS(N)(=O)=O)cc2)CC1c1ccccc1 (configuration not stated)
7.83

Q: Which pKi is reported with Carbonic anhydrase 9 (Homo sapiens, UniProt Q16790) for this entry: CC(=O)N1N=C(c2ccc(F)cc2)CC1c1cccc(OS(N)(=O)=O)c1 (configuration not stated) ?
A: 7.83

Q: Which pKi is reported with Carbonic anhydrase 9 (Homo sapiens, UniProt Q16790) for this entry: CC(=O)N1N=C(c2ccc(OS(N)(=O)=O)cc2)CC1c1ccc([N+](=O)[O-])cc1 (configuration not stated) ?
A: 7.83

* * *

# target-or-system: UniProt:P00915
measure: Ki (nM)
Quick reminder: number only, in nM, skip the unit.

A selection of reference data follows.
COc1cc(C2CC(c3ccc(C)cc3)=NN2C(N)=S)cc(OC)c1OC (stereo not given)
5.13
COc1cc(C2CC(c3ccc(Br)cc3)=NN2C(N)=S)cc(OC)c1OC (stereo not given)
5.13
Cc1ccc(C2=NN(C(=O)c3ccc(S(N)(=O)=O)cc3)C(c3ccc(C)cc3)C2)cc1 (stereo not given)
87.8
NS(=O)(=O)c1ccc(C(=O)N2N=C(c3ccc(F)cc3)CC2c2ccccc2)cc1 (stereo not given)
87.8
COc1ccccc1C1CC(c2ccccc2)=NN1C(=O)c1ccc(S(N)(=O)=O)cc1 (stereo not given)
87.8

Q: Which Ki is reported with UniProt:P00915 for this entry: NS(=O)(=O)c1ccc(N2N=C(c3ccc([N+](=O)[O-])cc3)CC2c2cccs2)cc1 (stereo not given) ?
A: 232

Q: Which Ki is reported with UniProt:P00915 for this entry: COc1ccc(C2=NN(c3ccc(S(N)(=O)=O)cc3)C(c3cccs3)C2)cc1 (stereo not given) ?
A: 232

Q: Which Ki is reported with UniProt:P00915 for this entry: NS(=O)(=O)c1ccc(C(=O)N2N=C(c3ccccc3)CC2c2ccccc2O)cc1 (stereo not given) ?
A: 87.8

* * *

Entries and their Ki values follow.
# target-or-system: Carbonic anhydrase 4 (Homo sapiens, UniProt P22748)
# Sequence (P22748 whole entry): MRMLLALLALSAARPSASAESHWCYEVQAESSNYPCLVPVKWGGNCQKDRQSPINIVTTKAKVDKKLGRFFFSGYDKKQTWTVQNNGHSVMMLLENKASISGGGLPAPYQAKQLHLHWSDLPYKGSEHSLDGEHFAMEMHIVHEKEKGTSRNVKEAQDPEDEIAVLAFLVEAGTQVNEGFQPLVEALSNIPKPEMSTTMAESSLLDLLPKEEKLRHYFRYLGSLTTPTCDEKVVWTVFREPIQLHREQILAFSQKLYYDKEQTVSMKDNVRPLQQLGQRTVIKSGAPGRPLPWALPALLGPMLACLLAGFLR
# assay-comment: Inhibition of human recombinant CA4
Quick reminder: number only, in µM, skip the unit.

CC(=O)N1N=C(c2ccc(OS(N)(=O)=O)cc2)CC1c1cc(Cl)ccc1Cl (configuration not stated)
0.0177
CC(=O)N1N=C(c2ccc(OS(N)(=O)=O)cc2)CC1c1ccc(C(F)(F)F)cc1 (configuration not stated)
0.0177
CC(=O)N1N=C(c2ccc(OS(N)(=O)=O)cc2)CC1c1ccc([N+](=O)[O-])cc1 (configuration not stated)
0.0177
CC(=O)N1N=C(c2ccc(OS(N)(=O)=O)cc2)CC1c1ccccc1 (configuration not stated)
0.0177

Q: Returns the measured Ki for the input compound. Input: COc1ccc(C2=NN(C(C)=O)C(c3ccc(OS(N)(=O)=O)cc3)C2)cc1 (configuration not stated)
A: 0.0177

Q: Returns the measured Ki for the input compound. Input: CC(=O)N1N=C(c2ccc(F)cc2)CC1c1cccc(OS(N)(=O)=O)c1 (configuration not stated)
A: 0.0177

Q: Returns the measured Ki for the input compound. Input: CC(=O)N1N=C(c2ccc(OS(N)(=O)=O)cc2)CC1c1ccccc1Cl (configuration not stated)
A: 0.0177

* * *

# Test system: Staphylococcus aureus
# assay-comment: Antibacterial activity against Staphylococcus aureus by agar dilution method
# Format: functional
measure: MIC
A bare number is not enough; add the unit after it.

A selection of reference data follows.
COc1ccc2c(c1)cc(C1CC(c3cc(Br)ccc3O)=NN1)c1nnnn12 (centres undefined)
50 µg/mL
COc1cccc2cc(/C=C/C(=O)c3cc(Br)ccc3O)c3nnnn3c12
50 µg/mL
Oc1ccc(Br)cc1C1=NOC(c2cc3ccccc3n3nnnc23)C1 (centres undefined)
25 µg/mL

Now turn to the next compound.
Q: Returns the measured MIC for the input compound. Input: Oc1ccc(Br)cc1C1=NNC(c2cc3ccccc3n3nnnc23)C1 (centres undefined)
A: 25 µg/mL

* * *

# target-or-system: Carbonic anhydrase 2 (Homo sapiens)
# assay-comment: Inhibition of human CA2 by UV spectrophotometric analysis
Entries and their Ki values follow.
A bare number is not enough; add the unit after it.

COc1ccc(C2CC(c3ccccc3)=NN2c2ccc(S(N)(=O)=O)cc2)cc1OC (configuration not stated)
27.4 nM

Now turn to the next molecule.
Q: Returns the measured Ki for the input molecule. Input: COc1ccc(C2CC(c3ccc(Cl)cc3)=NN2c2ccc(S(N)(=O)=O)cc2)cc1OC (configuration not stated)
A: 27.4 nM

* * *

Ki values recorded for Acetylcholinesterase (Homo sapiens)
Quick reminder: number only, in nM, skip the unit.

COc1ccc(C2CC(c3ccccc3)=NN2c2ccc(S(N)(=O)=O)cc2)c(OC)c1 (configuration not stated)
37.7
COc1ccc(C2CC(c3ccc(Cl)cc3)=NN2c2ccc(S(N)(=O)=O)cc2)c(OC)c1 (configuration not stated)
37.7
COc1ccc(C2CC(c3ccc(Cl)cc3)=NN2c2ccc(S(N)(=O)=O)cc2)cc1OC (configuration not stated)
37.7

Q: Returns the measured Ki for the input compound. Input: COc1ccc(C2CC(c3ccccc3)=NN2c2ccc(S(N)(=O)=O)cc2)cc1OC (configuration not stated)
A: 37.7

Q: Returns the measured Ki for the input compound. Input: COc1ccc(C2CC(c3ccc(F)cc3)=NN2c2ccc(S(N)(=O)=O)cc2)c(OC)c1 (configuration not stated)
A: 37.7

Q: Returns the measured Ki for the input compound. Input: COc1ccc(C2CC(c3ccc(F)cc3)=NN2c2ccc(S(N)(=O)=O)cc2)cc1OC (configuration not stated)
A: 37.7

Q: Returns the measured Ki for the input compound. Input: COc1ccc(C2CC(c3ccc(Br)cc3)=NN2c2ccc(S(N)(=O)=O)cc2)c(OC)c1 (configuration not stated)
A: 37.7

* * *

Entries and their MIC values follow.
# Test system: Aspergillus clavatus
# assay-comment: Antifungal activity against Aspergillus clavatus
# Type: functional
Quick reminder: number only, in µg/mL, skip the unit.

A selection of reference data follows.
O=C(c1ccncc1)N1N=C(c2ccc(Cl)cc2Cl)CC1c1cc2ccccc2nc1Cl (stereo not given)
50
O=C(c1ccncc1)N1N=C(c2cccc([N+](=O)[O-])c2)CC1c1cc2ccccc2nc1Cl (stereo not given)
12.5
O=C(c1ccncc1)N1N=C(c2ccc([N+](=O)[O-])cc2)CC1c1cc2ccccc2nc1Cl (stereo not given)
12.5
O=C(c1ccncc1)N1N=C(c2ccc(Br)cc2)CC1c1cc2ccccc2nc1Cl (stereo not given)
50

Now turn to the next compound.
Q: Returns the measured MIC for the input compound. Input: O=C(c1ccncc1)N1N=C(c2ccccc2Cl)CC1c1cc2ccccc2nc1Cl (stereo not given)
A: 12.5

* * *

log10 of Ki values recorded for Carbonic anhydrase 1 (Homo sapiens, UniProt P00915)
Lab note - Ki converted to log10 from values in nM.

NS(=O)(=O)c1ccc(C(=O)N2N=C(c3ccccc3)CC2c2ccc(Cl)cc2)cc1 (stereo not given)
1.94
NS(=O)(=O)c1ccc(C(=O)N2N=C(c3ccccc3)CC2c2ccc(F)cc2)cc1 (stereo not given)
1.94
NS(=O)(=O)c1ccc(N2N=C(c3ccc(O)cc3)CC2c2cccs2)cc1 (stereo not given)
2.37
NS(=O)(=O)c1ccc(N2N=C(c3ccccc3)CC2c2ccccc2)cc1 (stereo not given)
2.50
Cc1ccc(C2CC(c3ccccc3)=NN2C(=O)c2ccc(S(N)(=O)=O)cc2)cc1 (stereo not given)
1.94
Cc1ccc(C2=NN(c3ccc(S(N)(=O)=O)cc3)C(c3cccs3)C2)cc1 (stereo not given)
2.37
NS(=O)(=O)c1ccc(C(=O)N2N=C(c3ccccc3)CC2c2ccc3c(c2)COO3)cc1 (stereo not given)
1.94
COc1ccc(C2=NN(c3ccc(S(N)(=O)=O)cc3)C(c3cc(OC)c(OC)c(OC)c3)C2)cc1 (stereo not given)
1.42

Q: Returns the measured log10 of Ki for the input compound. Input: COc1cc(C2CC(c3ccc(N)cc3)=NN2C(N)=S)cc(OC)c1OC (stereo not given)
A: 0.71

Q: Returns the measured log10 of Ki for the input compound. Input: COc1cc(/C=C/C(=O)c2ccc(O)cc2)ccc1N(C)C
A: 0.71

Q: Returns the measured log10 of Ki for the input compound. Input: COc1ccc(C2=NN(c3ccc(S(N)(=O)=O)cc3)C(c3ccc(OC)c(OC)c3OC)C2)cc1 (stereo not given)
A: 1.42

Q: Returns the measured log10 of Ki for the input compound. Input: COc1ccc(C2=NN(C(=O)c3ccc(S(N)(=O)=O)cc3)C(c3ccc(OC)c(OC)c3)C2)c(OC)c1 (stereo not given)
A: 3.43

Q: Returns the measured log10 of Ki for the input compound. Input: COc1cc(/C=C/C(=O)c2ccc(C)cc2)cc(OC)c1OC
A: 0.71

Q: Returns the measured log10 of Ki for the input compound. Input: NS(=O)(=O)c1ccc(N2N=C(c3ccc(O)cc3)CC2c2ccccc2)cc1 (stereo not given)
A: 2.50

Q: Returns the measured log10 of Ki for the input compound. Input: COc1ccc(C2CC(c3ccccc3)=NN2C(=O)c2ccc(S(N)(=O)=O)cc2)cc1 (stereo not given)
A: 1.94

Q: Returns the measured log10 of Ki for the input compound. Input: NS(=O)(=O)c1ccc(C(=O)N2N=C(c3ccc(F)cc3)CC2c2ccc(F)cc2)cc1 (stereo not given)
A: 1.94

Q: Returns the measured log10 of Ki for the input compound. Input: COc1ccc(/C=C/C(=O)c2ccc(N)cc2)cc1OC
A: 0.71

Q: Returns the measured log10 of Ki for the input compound. Input: NS(=O)(=O)c1ccc(N2N=C(c3ccc(Cl)cc3)CC2c2cccs2)cc1 (stereo not given)
A: 2.37

Q: Returns the measured log10 of Ki for the input compound. Input: COc1ccc(C2=NN(C(=O)c3ccc(S(N)(=O)=O)cc3)C(c3ccc(OC)cc3)C2)cc1 (stereo not given)
A: 1.94

Q: Returns the measured log10 of Ki for the input compound. Input: NS(=O)(=O)c1ccc(N2N=C(c3ccc(Cl)cc3)CC2c2ccccc2)cc1 (stereo not given)
A: 2.50
